Recorded values, source PubChem BioAssay.

- Experiment Summary: inhibitors of mutant huntingtin aggregation, primary screen, imaging, exon1htt(103Q)mCFP cells, high-content imaging (AID 483);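 also: compound exposure lasted 3 days before fixation; percent of the per-plate median nuclei count of sample wells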
- Run Parameters: exon1htt(103Q)mCFP cell line, aggregate imaging, at 2 µM; measured here: cell count, toxicity
Quantity: nuclei count (%)
Report only the number, with the unit % understood.

State its nuclei count: Cc1ccc(Cl)cc1N1CCN(C(=O)C2CCCN(S(=O)(=O)c3cnc[nH]3)C2)CC1 (stereo not given) 102

State its nuclei count: CCCOc1cccc(C(=O)Nc2cc(NC(=O)c3ccco3)ccc2OC)c1 101

State its nuclei count: O=C1c2cccnc2C(=O)N1c1cccc(-c2nc3ccccc3o2)c1 84

State its nuclei count: OCCNCCCCOc1ccccc1F 91.8

State its nuclei count: O=C(C1CCCN(S(=O)(=O)c2cnc[nH]2)C1)N1CCN(c2ccc(Cl)cc2)CC1 (stereo not given) 103

State its nuclei count: CN(C)CCN1C(=O)C(O)=C(C(=O)c2cc3ccccc3o2)C1c1ccc(N(C)C)cc1 (stereo not given) 95.2

State its nuclei count: O=C(C1CCC(N2C(=O)C3CC=CCC3C2=O)CC1)N1CCCCC1 (stereo not given) 80.1

State its nuclei count: CCOc1ccc2c(c1)c1nnc(SCC(=O)N3CCC(C)CC3)nc1n2C 99.9

State its nuclei count: Cc1cc(C)n2nc(SCc3cc(=O)n4ccccc4n3)nc2n1 66.3

State its nuclei count: CCCN1CCN(C(=O)Cn2c(=O)oc3cc(S(=O)(=O)NCc4ccccc4)ccc32)CC1 117

###

- Experiment Summary: inhibitors of Sendai virus-induced IRF3 signaling, primary screen, TLR/RLR signaling modifier project, cell-based, Sendai virus stimulus, luciferase, 10K MLSCN set (AID 602276);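 also: firefly luciferase from ISG56 promoter only with Renilla not read in this screen; 0% = Sendai virus plus DMSO and 100% = medium plus DMSO without virus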
- Run Parameters: HEK293 RL24 IRF3 luciferase reporter, at 10 µM, stronger effect = higher value
The source made the active and inactive calls.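 Rule for the calls: active = inhibition at or above 50% at 10 µM; inactive = inhibition below 50%.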
Quantity: inhibition

State its inhibition: CCCCN(C)CCCNC(=O)CC1Oc2ccccc2NC1=O (stereo unspecified) 13.8% (inactive)

State its inhibition: OC1C[N+]2(CCCCC2)C1 11.5% (inactive)

State its inhibition: CCOC(=O)Cn1c(=O)c(-c2ccccc2N)nc2ccccc21 12.3% (inactive)

State its inhibition: Nc1nc2n(n1)C(c1cccc(Br)c1)CC(c1ccc(F)cc1)N2 (stereo unspecified) 2.63% (inactive)

State its inhibition: Cc1nnc(NC(=O)CSc2nc3c(c(=O)n2C)SC(C)C3)s1 (stereo unspecified) 13.8% (inactive)

State its inhibition: CS(=O)(=O)N(CC(=O)NCCSCc1cccc(Cl)c1)c1ccc2c(c1)OCO2 -12% (inactive)

###

- Subject Of Test: Voltage-gated potassium channel subunit beta-2 (Rattus norvegicus) (UniProt P62483)
- Sequence (P62483 whole entry, looked up): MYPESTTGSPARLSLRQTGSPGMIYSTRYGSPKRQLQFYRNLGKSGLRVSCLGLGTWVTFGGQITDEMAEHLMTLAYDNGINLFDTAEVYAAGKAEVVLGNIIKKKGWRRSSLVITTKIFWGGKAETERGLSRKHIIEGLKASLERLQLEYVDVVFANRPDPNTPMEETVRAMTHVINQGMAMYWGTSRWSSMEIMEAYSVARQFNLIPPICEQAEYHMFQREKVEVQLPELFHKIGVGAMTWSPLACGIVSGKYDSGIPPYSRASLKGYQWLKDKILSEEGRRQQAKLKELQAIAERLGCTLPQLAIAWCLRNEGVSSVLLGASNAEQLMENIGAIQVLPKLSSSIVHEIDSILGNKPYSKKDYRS
- Experiment Summary: KvBeta enzyme negative modulators, primary screen, biochemical, NADPH fluorescence (AID 622);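 also: slope of raw intensity against log time taken from 70 to 1610 s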
- Run Parameters: recombinant KvBeta, 4-cyanobenzaldehyde reduction, at 10 µM, stronger effect = higher value
Quantity: fluorescence slope
# output: bare number, no unit

State its fluorescence slope: CCOC(=O)c1[nH]c2ccccc2c1NC(=O)CN(C)C -0.476

State its fluorescence slope: CCOC(=O)c1[nH]c2cc3c(cc2c1NC(=O)CN1CC(C)CC(C)C1)OCO3 (stereo unspecified) -0.329

State its fluorescence slope: Cc1ccc(C(=O)/C=C/Nc2ccccn2)cc1 -0.455

State its fluorescence slope: Cc1ccc(C(=O)NCC(C)(C)O)cc1 -0.473

State its fluorescence slope: O=S(=O)(c1cccs1)N1CCN(Cc2nc3ccccc3s2)CC1 -0.556

State its fluorescence slope: Cc1ccc(-c2nnc(N3CCN(C(=O)CN4C(=O)c5ccccc5C4=O)CC3)c3ccccc23)cc1 -0.468
